# Test system: Yersinia pseudotuberculosis
# protocol.notes: Antimicrobial activity against Yersinia pseudotuberculosis ATCC 911 incubated for 18 to 24 hrs by microbroth dilution method
# Format: functional
Mark each entry condition met if its MIC sits below 0.2 µg/mL, and condition not met for all others.

Hi there! Is MIC for "O=C(O)c1cn(C2CC2)c2cc(N3CCN(Cn4nc(CN5CCN(c6ccc([N+](=O)[O-])cc6)CC5)oc4=S)CC3)c(F)cc2c1=O" below 0.2 µg/mL, do you know?
condition met

====

# Test system: Mycolicibacterium smegmatis
# protocol.notes: Antimicrobial activity against Mycobacterium smegmatis ATCC 607 incubated for 48 to 72 hrs by microbroth dilution method
# Type: functional
measure.name: MIC (mg/L)
Response body: numeric value in mg/L, unit text excluded.

Solved cases below.
1. CCn1c(CN2CCN(c3ccc([N+](=O)[O-])cc3)CC2)nn(CN2CCN(c3cc4c(cc3F)c(=O)c(C(=O)O)cn4CC)CC2)c1=S ... 0.244
2. CCn1cc(C(=O)O)c(=O)c2cc(F)c(N3CCN(Cn4nc(CN5CCN(c6ccc([N+](=O)[O-])cc6)CC5)oc4=S)CC3)cc21 ... 1

Endpoint output: MIC of "CCn1cc(C(=O)O)c(=O)c2cc(F)c(N3CCN(Cn4nc(CN5CCN(c6ccc([N+](=O)[O-])cc6)CC5)n(-c5ccc(F)cc5)c4=S)CC3)cc21" . Value?
0.244

====

Listed next: entries and their corresponding log10(MIC).
# Tested on: Klebsiella pneumoniae
# protocol.notes: Antimicrobial activity against Klebsiella pneumoniae ATCC 29522 incubated for 16 hrs by CLSI-based agar dilution method
# Type: functional
# stated.conditions: ATCC 29522, 16 h
// do not treat as linear: log10 of MIC, unit µg/mL

1. COc1c(N2C[C@@H]3CCCN(CC(O)Cn4cc([N+](=O)[O-])nc4C)[C@@H]3C2)c(F)cc2c(=O)c(C(=O)O)cn(C3CC3)c12 (stereo not given in full) ... 0.90
2. CCn1cc(C(=O)O)c(=O)c2cc(F)c(N3CCN(CC(O)Cn4cc([N+](=O)[O-])nc4Cl)C(C)C3)c(F)c21 (stereo not given) ... 1.51

Need log10(MIC) of COc1c(N2CCN(C[C@H](O)Cn3cc([N+](=O)[O-])nc3C)C(C)C2)c(F)cc2c(=O)c(C(=O)O)cn(C3CC3)c12 (stereo not given in full) , thanks.
1.51

log10(MIC) lookup needed for "COc1c(N2C[C@@H]3CCCN(C[C@H](O)Cn4cc([N+](=O)[O-])nc4C)[C@@H]3C2)c(F)cc2c(=O)c(C(=O)O)cn(C3CC3)c12" , thanks.
0.00

Form field: reported log10(MIC) of COc1c(N2CCCC(N(C)C[C@@H](O)Cn3cc([N+](=O)[O-])nc3C)C2)c(F)cc2c(=O)c(C(=O)O)cn(C3CC3)c12 (stereo not given in full)
1.20

Item COc1c(N2CCCC(N(C)CC(O)Cn3cc([N+](=O)[O-])nc3C)C2)c(F)cc2c(=O)c(C(=O)O)cn(C3CC3)c12 (stereo not given) has what recorded log10(MIC)?
0.30

====

# log10 of MIC per entry
# Tested on: Pseudomonas aeruginosa
# protocol.notes: Antimicrobial activity against Pseudomonas aeruginosa ATCC 19429 incubated for 18 hrs by CLSI-based microbroth dilution method
# Assay type: functional
# stated.conditions: ATCC 19429, 18 h
Friendly reminder: values = log10 of MIC, unit µg/mL.

Use the examples below as a reference point.
1) CCn1cc(C(=O)O)c(=O)c2cc(F)c(N(C)C)cc21 ... 1.81
2) CN(C)c1cc2c(cc1F)c(=O)c(C(=O)O)cn2C1CC1 ... 0.90
3) CN1CCN(c2cc3c(cc2F)c(=O)c(C(=O)O)cn3C2CC2)CC1 ... 0.00
4) CCn1cc(C(=O)O)c(=O)c2cc(F)c(N3CCNCC3)cc21.Cl ... 0.00
5) CCN(CC)c1cc2c(cc1F)c(=O)c(C(=O)O)cn2C1CC1 ... 1.51

// lookup log10 of MIC for "CC(C)n1cc(C(=O)O)c(=O)c2cc(F)c(N3CCNCC3)cc21.Cl"
0.60

Request the reported log10 of MIC associated with "Cl.Cn1cc(C(=O)O)c(=O)c2cc(F)c(N3CCNCC3)cc21"
0.30

Look up log10 of MIC for this compound: "Cl.O=C(O)c1cn(CCO)c2cc(N3CCNCC3)c(F)cc2c1=O"
1.81

Dear colleague, I am looking for the recorded log10 of MIC of the following compound: "Cl.O=C(O)c1cn(Cc2ccccc2)c2cc(N3CCNCC3)c(F)cc2c1=O"
0.30

log10 of MIC lookup needed for "O=C(O)c1cn(C2CC2)c2cc(N3CCCCC3)c(F)cc2c1=O" , thanks.
1.51

// returns reported log10 of MIC for input "Cl.NCCNc1cc2c(cc1F)c(=O)c(C(=O)O)cn2C1CC1"
0.60

What value of log10 of MIC has been reported for the following compound? "O=C(O)c1cn(C2CC2)c2cc(N3CCOCC3)c(F)cc2c1=O"
0.90

Which log10 of MIC reading was recorded for the compound "CCCCn1cc(C(=O)O)c(=O)c2cc(F)c(N3CCNCC3)cc21.Cl" ?
1.20

====

# Tested on: Bacillus cereus
# protocol.notes: Antimicrobial activity against Bacillus cereus 709 Roma incubated for 18 to 24 hrs by microbroth dilution method
# Type: functional
Each entry below lists one item and its recorded MIC value.

1. O=C(O)c1cn(C2CC2)c2cc(N3CCN(Cn4nc(CN5CCN(c6ccc([N+](=O)[O-])cc6)CC5)oc4=S)CC3)c(F)cc2c1=O ... 0.03 µg/mL
2. CCn1c(CN2CCN(c3ccc([N+](=O)[O-])cc3)CC2)nn(CN2CCN(c3cc4c(cc3F)c(=O)c(C(=O)O)cn4CC)CC2)c1=S ... 0.122 to 0.25 µg/mL
3. CCn1cc(C(=O)O)c(=O)c2cc(F)c(N3CCN(Cn4nc(CN5CCN(c6ccc([N+](=O)[O-])cc6)CC5)n(-c5ccccc5)c4=O)CC3)cc21 ... 0.03 to 0.25 µg/mL
4. CCn1cc(C(=O)O)c(=O)c2cc(F)c(N3CCN(Cn4nc(CN5CCN(c6ccc([N+](=O)[O-])cc6)CC5)n(-c5ccc(F)cc5)c4=S)CC3)cc21 ... 0.24 µg/mL
5. CCn1cc(C(=O)O)c(=O)c2cc(F)c(N3CCN(Cn4nc(CN5CCN(c6ccc([N+](=O)[O-])cc6)CC5)n(Cc5ccccc5)c4=O)CC3)cc21 ... 0.24 to 0.25 µg/mL

Attention now turns to another entry.
Data request, read-out MIC, for "CCn1cc(C(=O)O)c(=O)c2cc(F)c(N3CCN(Cn4nc(CN5CCN(c6ccc([N+](=O)[O-])cc6)CC5)n(-c5ccccc5)c4=S)CC3)cc21"
0.12 to 0.24 µg/mL

====

# Test system: Escherichia coli
# protocol.notes: Antimicrobial activity against Escherichia coli ATCC 9637 incubated for 24 hrs by CLSI-based broth microdilution method
# Assay type: functional
# stated.conditions: W ATCC 9637, 24 h
measure.name: MIC (µg/mL)
Kindly provide the numeric value in µg/mL only, without the unit symbol.

Give recorded MIC with Escherichia coli for the following molecule: "CCn1cc(C(=O)O)c(=O)c2cc(F)c(-n3cc(CO[C@H]4O[C@H](COC(C)=O)[C@@H](OC(C)=O)[C@H](OC(C)=O)[C@H]4NC(C)=O)nn3)c(F)c21"
12.5

I'm curious: which MIC was measured for "CCn1cc(C(=O)O)c(=O)c2cc(F)c(-n3cc(CO[C@H]4O[C@H](COC(C)=O)[C@H](OC(C)=O)[C@H](OC(C)=O)[C@H]4OC(C)=O)nn3)c(F)c21" tested on Escherichia coli?
12.5

Form field - read-out: MIC; system: Escherichia coli; submitted item: "CCn1cc(C(=O)O)c(=O)c2cc(F)c(-n3cc(CO[C@H]4OC[C@@H](OC(C)=O)[C@H](OC(C)=O)[C@H]4OC(C)=O)nn3)c(F)c21"
12.5

Under Escherichia coli: MIC value of "CCn1cc(C(=O)O)c(=O)c2cc(F)c(-n3cc(CO[C@H]4OC[C@@H](OC(C)=O)[C@@H](OC(C)=O)[C@@H]4OC(C)=O)nn3)c(F)c21" ?
12.5

Form entry - test system: Escherichia coli; read-out: MIC; molecule: "CCn1cc(C(=O)O)c(=O)c2cc(F)c(-n3cc(CO[C@H]4O[C@H](COC(C)=O)[C@@H](OC(C)=O)[C@H](OC(C)=O)[C@@H]4OC(C)=O)nn3)c(F)c21"
50

Missing value: MIC, Escherichia coli, entry "CCn1cc(C(=O)O)c(=O)c2cc(F)c(-n3cc(CO[C@H]4OC[C@@H](OC(C)=O)[C@@H](OC(C)=O)[C@H]4OC(C)=O)nn3)c(F)c21" . Fill in?
6.25
